Sourced from patent US20260166039A1

The compounds listed here are annotated with their pIC50.
Molecular target: Wee1 kinase domain (Homo sapiens, UniProt P30291)
Construct: Wee1 kinase domain was purchased from Carna (catalog #05-177); purchased Carna 05-177
Sequence (P30291 299-569 limits assumed): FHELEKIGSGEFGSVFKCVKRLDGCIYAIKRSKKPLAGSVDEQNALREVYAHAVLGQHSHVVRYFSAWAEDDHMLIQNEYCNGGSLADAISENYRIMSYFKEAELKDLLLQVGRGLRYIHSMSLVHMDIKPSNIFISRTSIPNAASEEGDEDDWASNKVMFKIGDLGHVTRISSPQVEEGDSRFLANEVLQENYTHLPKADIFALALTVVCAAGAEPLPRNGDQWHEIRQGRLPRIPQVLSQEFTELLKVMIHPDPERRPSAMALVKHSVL
Test: Wee1 Kinase Biochemical Assay (ADP-Glo)
Conditions: Wee1 kinase domain, 15 uM ATP, ADP-Glo
pIC50: −log10 of the molar value.

CC1(C)C[C@H]2N(c3cccc(N=S(C)(C)=O)n3)c3nc(Nc4ccc5ncnn5c4)ncc3[C@@]2(C)CO1 (single isomer, unassigned)	> 8.00
Cc1cc(Nc2ncc3c(n2)N(c2cccc(C(C)(C)O)n2)[C@H]2CC(C)(C)OC[C@@]32C)ccc1N1CCN(C)CC1 (single isomer, unassigned)	7.00 to 8.00
CC1(C)C[C@@H]2N(c3cccc(N=S(C)(C)=O)n3)c3nc(Nc4ccc([C@]5(C)CCNC5)cc4)ncc3[C@]2(C)CO1 (single isomer, unassigned) [Example 173]	> 8.00
CN1CCN(c2ccc(Nc3ncc4c(n3)N(c3cccc(N=S(C)(C)=O)n3)[C@@H]3CC(C)(C)OC[C@]43C)cc2)CC1	> 8.00

Tell us which pIC50 value is on record for C[C@H]1COC(=O)N1c1cccc(N2c3nc(Nc4ccc(O[C@@H]5CCNC5)nc4)ncc3[C@@]3(C)COC(C)(C)C[C@@H]23)n1 (single isomer, unassigned)
> 8.00

Tell us which pIC50 value is on record for CC1(C)C[C@H]2N(c3cccc(N=S(C)(C)=O)n3)c3nc(Nc4ccc(C(F)F)nn4)ncc3[C@@]2(C)CO1 (single isomer, unassigned)
> 8.00

Tell us which pIC50 value is on record for C[C@H]1COC(=O)N1c1cccc(N2c3nc(Nc4ccc(C5CCN(C)CC5)cc4)ncc3[C@@]3(C)COC(C)(C)C[C@@H]23)n1 (single isomer, unassigned)
> 8.00

Tell us which pIC50 value is on record for CN1CC(c2ccc(Nc3ncc4c(n3)N(c3cccc(N=S(C)(C)=O)n3)[C@@H]3CC(C)(C)OC[C@]43C)cc2Cl)C1 (single isomer, unassigned)
> 8.00

Tell us which pIC50 value is on record for Cc1cc(Nc2ncc3c(n2)N(c2cccc(N4C(=O)OC[C@@H]4C)n2)[C@@H]2CC(C)(C)OC[C@]32C)ccc1N1C[C@H]2C[C@@H]1CN2C (single isomer, unassigned)
> 8.00

Tell us which pIC50 value is on record for Cc1cc(Nc2ncc3c(n2)N(c2cccc(N4C(=O)OC[C@@H]4C)n2)[C@H]2CC(C)(C)OC[C@@]32C)ccc1O[C@H]1CCN(C)C1 (single isomer, unassigned)
7.00 to 8.00

###

Molecular target: Wee1 kinase domain (Homo sapiens, UniProt P30291)
Construct: Wee1 kinase domain was purchased from Carna (catalog #05-177); purchased Carna 05-177
Experiment: Wee1 Kinase Biochemical Assay (ADP-Glo)
Conditions: class symbols; 1 nM Wee1 enzyme, 15 uM ATP, 4 hours at 25° C.
assayReadout: IC50

Solved entries:
CN1CCC(c2cccc(N3c4nc(Nc5ccc(N6CCOCC6)cc5)ncc4[C@]4(C)COC(C)(C)C[C@H]34)n2)CC1 (single isomer, unassigned)	100 to 1000 nM
CC1(C)C[C@H]2N(c3cccc(N4CCOC4=O)n3)c3nc(Nc4ccc([C@H]5CCNC5)cc4)ncc3[C@@]2(C)CO1 (single isomer, unassigned)	< 10 nM
CC1(C)C[C@H]2N(c3cccc(N=S(C)(C)=O)n3)c3nc(NC(=O)[C@H]4C[C@@H]4c4cccnc4)ncc3[C@@]2(C)CO1 (single isomer, unassigned)	10 to 100 nM

State IC50 on Wee1 kinase domain (Homo sapiens, UniProt P30291). Entry: CC1(C)C[C@H]2N(c3cccc(N4CCOC4=O)n3)c3nc(Nc4ccc([C@@H]5CNCC5(F)F)cc4)ncc3[C@@]2(C)CO1
< 10 nM

State IC50 on Wee1 kinase domain (Homo sapiens, UniProt P30291). Entry: CN1CC2(C1)CN(c1ccc(Nc3ncc4c(n3)N(c3cccc(N5CCOC5=O)n3)[C@H]3CC(C)(C)OC[C@@]43C)cc1)C2
10 to 100 nM

State IC50 on Wee1 kinase domain (Homo sapiens, UniProt P30291). Entry: CNCc1cccc(N2c3nc(Nc4ccc(=O)n(C)c4)ncc3[C@@]3(C)COC(C)(C)C[C@@H]23)n1 (single isomer, unassigned)
10 to 100 nM

State IC50 on Wee1 kinase domain (Homo sapiens, UniProt P30291). Entry: CN1C[C@H]2C[C@@H]1CN2c1ccc(Nc2ncc3c(n2)N(c2cccc(N4CCOC4=O)n2)[C@@H]2CC(C)(C)OC[C@]32C)cc1 (single isomer, unassigned)
< 10 nM

State IC50 on Wee1 kinase domain (Homo sapiens, UniProt P30291). Entry: CN1CC[C@@H]2CN(c3ccc(Nc4ncc5c(n4)N(c4cccc(C(C)(C)O)n4)[C@H]4CC(C)(C)OC[C@@]54C)cc3)C[C@@H]21 (single isomer, unassigned)
100 to 1000 nM

State IC50 on Wee1 kinase domain (Homo sapiens, UniProt P30291). Entry: CN1CC[C@H]2CN(c3ccc(Nc4ncc5c(n4)N(c4cccc(N=S(C)(C)=O)n4)[C@@H]4CC(C)(C)OC[C@]54C)cc3)C[C@H]21 (single isomer, unassigned)
< 10 nM

###

Tested on: phosphorylation of Cdc2 Y15 (Wee1 substrate) in A427 cells
Assay: Phosphorylated Cdc2 MSD Electrochemiluminescence Assay
Format: cell-based
Settings: Homo sapiens, A-427, pCDC2 MSD
assayReadout: IC50

Solved entries:
C[C@H]1COC(=O)N1c1cccc(N2c3nc(Nc4ccc([C@H]5CCNC5)cc4)ncc3[C@@]3(C)COC(C)(C)C[C@@H]23)n1 (single isomer, unassigned)	100 to 1000 nM
C[C@H]1COC(=O)N1c1cccc(N2c3nc(Nc4ccc(C(C)(C)C)nc4)ncc3[C@@]3(C)COC(C)(C)C[C@@H]23)n1 (single isomer, unassigned)	1000 to 10000 nM
Cn1nc(Nc2ncc3c(n2)N(c2cccc(N=S(C)(C)=O)n2)[C@@H]2CC(C)(C)OC[C@]32C)ccc1=O (single isomer, unassigned)	1000 to 10000 nM

Tell us which IC50 value is on record for Cc1cc(Nc2ncc3c(n2)N(c2cccc(N=S(C)(C)=O)n2)[C@@H]2CC(C)(C)OC[C@]32C)ccc1[C@@H]1COCCN1 (single isomer, unassigned)
< 100 nM

###

Target: Wee1 kinase domain (Homo sapiens)
Construct: Wee1 kinase domain was purchased from Carna (catalog #05-177); purchased Carna 05-177
Assay: Wee1 Kinase Biochemical Assay (ADP-Glo)
Details: class symbols; 1 nM Wee1 enzyme, 15 uM ATP, 4 hours at 25° C.
pIC50: −log10 of the molar value.
assayReadout: pIC50

CNCc1cccc(N2c3nc(Nc4cnn(C)c4)ncc3[C@]3(C)COC(C)(C)C[C@H]23)n1 (single isomer, unassigned) [Example 471]	6.00 to 7.00
CN1C[C@H]2C[C@@H]1CN2c1ccc(Nc2ncc3c(n2)N(c2cccc(N=S(C)(C)=O)c2)[C@H]2CC(C)(C)OC[C@@]32C)cc1 [Example 714]	7.00 to 8.00
CN[C@H](C)c1cccc(N2c3nc(Nc4ccc(N5CCOCC5)cc4)ncc3[C@@]3(C)COC(C)(C)C[C@@H]23)n1 (single isomer, unassigned) [Example 549]	> 8.00
CN1CC2(C1)CN(c1ccc(Nc3ncc4c(n3)N(c3cccc(P(C)(C)=O)n3)[C@@H]3CC(C)(C)OC[C@]43C)cc1)C2 (single isomer, unassigned) [Example 775]	> 8.00
CC1(C)C[C@H]2N(c3cccc(N4CCOC4=O)n3)c3nc(Nc4ccc([C@@H]5CNC[C@@H]5F)cc4)ncc3[C@@]2(C)CO1 [Example 675]	> 8.00
Cc1cc(Nc2ncc3c(n2)N(c2cccc(N4CCCC4=O)n2)[C@H]2CC(C)(C)OC[C@@]32C)ccc1N1C[C@@H]2C[C@H]1CN2C [Example 653]	7.00 to 8.00

Attention now turns to another entry.
Tell us which pIC50 value is on record for CC1(C)C[C@@H]2N(c3cccc(N4CCOC4=O)n3)c3nc(Nc4ccc([C@]5(C)CCNC5)cc4)ncc3[C@]2(C)CO1 [Example 665]
7.00 to 8.00
